- Test system: A549
- Experiment: Cytotoxicity against human A549 cells after 48 hrs by MTT assay
- Assay type: functional, cell-based
- Experimental Conditions: A549, 48 h
For each entry below, report its IC50 value.
One number for each entry, in µM.

Cc1ccc(S(=O)(=O)/N=C(/CCNC2=CC(=O)c3ccccc3C2=O)NCc2ccccc2)cc1; 7.41
Cc1ccc(S(=O)(=O)/N=C(/CCNC2=CC(=O)c3ccccc3C2=O)Nc2ccc(F)c(F)c2)cc1; 16.7
COc1ccc(N/C(CCNC2=CC(=O)c3ccccc3C2=O)=N\S(=O)(=O)c2ccc(C)cc2)c(OC)c1; 126
C#CCNC1=CC(=O)c2ccccc2C1=O; 47.3
Cc1ccc(S(=O)(=O)/N=C(/CCNC2=CC(=O)c3ccccc3C2=O)Nc2ccc(Cl)cc2)cc1; 29.9

Provide IC50 for all items below, preserving their order.
1. COc1ccc(N/C(CCNC2=CC(=O)C(C)=C(C)C2=O)=N\S(=O)(=O)c2ccc(C)cc2)cc1OC
2. Cc1ccc(S(=O)(=O)/N=C(/CCNC2=CC(=O)c3ccccc3C2=O)Nc2cc(F)c(F)c(F)c2)cc1
3. Cc1ccc(S(=O)(=O)/N=C(/CCNC2=CC(=O)c3ccccc3C2=O)Nc2cccc(C)c2)cc1
4. COc1ccc(N/C(CCNC2=CC(=O)c3ccccc3C2=O)=N\S(=O)(=O)c2ccc(C)cc2)cc1
5. Cc1ccc(S(=O)(=O)/N=C(/CCNC2=CC(=O)c3ccccc3C2=O)NC2CCCCC2)cc1

1. 15.5
2. 10.2
3. 18.7
4. 25.5
5. 14.7

Kindly give each listed record's IC50.
1. COc1ccc(N/C(CCNC2=C(Br)C(=O)c3ccccc3C2=O)=N\S(=O)(=O)c2ccc(C)cc2)cc1OC
2. Cc1ccc(S(=O)(=O)/N=C(/CCNC2=CC(=O)c3ccccc3C2=O)NCCc2c[nH]c3ccccc23)cc1
3. Cc1ccc(S(=O)(=O)/N=C(/CCNC2=CC(=O)c3ccccc3C2=O)Nc2cccc(C(F)(F)F)c2)cc1
4. COc1ccc(N/C(CCNC2=CC(=O)c3ccccc3C2=O)=N\S(=O)(=O)c2ccc(C)cc2)cc1OC
5. Cc1ccc(S(=O)(=O)/N=C(/CCNC2=CC(=O)c3ccccc3C2=O)Nc2ccccc2[N+](=O)[O-])cc1
6. COc1ccc(N/C(CCNC2=CC(=O)c3ccccc3C2=O)=N\S(=O)(=O)c2ccc(C(C)(C)C)cc2)cc1OC
7. Cc1ccc(S(=O)(=O)/N=C(/CCNC2=CC(=O)c3ccccc3C2=O)Nc2ccc(Cl)cc2Cl)cc1

17.5
17
78.5
20.4
5.01
16.2
32.9

List IC50 for every entry below, keeping the order given.
1. Cc1ccc(S(=O)(=O)/N=C(/CCNC2=CC(=O)c3ccccc3C2=O)NC(C)C)cc1
2. Cc1ccc(S(=O)(=O)/N=C(/CCNC2=CC(=O)c3ccccc3C2=O)Nc2ccccc2I)cc1
3. Cc1ccc(S(=O)(=O)/N=C(\N)CCNC2=CC(=O)c3ccccc3C2=O)cc1
4. COc1cccc2c1C(=O)c1c(O)c3c(c(O)c1C2=O)C[C@@](O)(C(=O)CO)C[C@@H]3O[C@H]1C[C@H](N)[C@H](O)[C@H](C)O1
5. COc1cc(N/C(CCNC2=CC(=O)c3ccccc3C2=O)=N\S(=O)(=O)c2ccc(C)cc2)cc(OC)c1OC
6. Cc1ccc(S(=O)(=O)/N=C(/CCNC2=CC(=O)c3ccccc3C2=O)Nc2ccc(F)cc2)cc1

1. 44.3
2. 24.7
3. 26.6
4. 2.34
5. 7.94
6. 9.33

###

- Test system: HeLa
- Experiment: Cytotoxicity against human HeLa cells after 48 hrs by MTT assay
- Format: functional, cell-based
Assay Endpoint: pIC50
One number for each entry, as −log10 of the molar value.

Record excerpt, results attached:
Cc1ccc(S(=O)(=O)/N=C(/CCNC2=CC(=O)c3ccccc3C2=O)NC(C)C)cc1; 4.52
Cc1ccc(S(=O)(=O)/N=C(/CCNC2=CC(=O)c3ccccc3C2=O)Nc2ccc(F)cc2)cc1; 5.23
Cc1ccc(S(=O)(=O)/N=C(/CCNC2=CC(=O)c3ccccc3C2=O)Nc2ccc(F)c(F)c2)cc1; 5.06

I would be grateful if you could provide pIC50 for each of the following entries.
1. Cc1ccc(S(=O)(=O)/N=C(/CCNC2=CC(=O)c3ccccc3C2=O)Nc2cccc(C(F)(F)F)c2)cc1
2. Cc1ccc(S(=O)(=O)/N=C(/CCNC2=CC(=O)c3ccccc3C2=O)Nc2cccc(C)c2)cc1
3. Cc1ccc(S(=O)(=O)/N=C(/CCNC2=CC(=O)c3ccccc3C2=O)NCCc2c[nH]c3ccccc23)cc1
4. Cc1ccc(S(=O)(=O)/N=C(/CCNC2=CC(=O)c3ccccc3C2=O)Nc2ccccc2[N+](=O)[O-])cc1
5. COc1ccc(N/C(CCNC2=CC(=O)c3ccccc3C2=O)=N\S(=O)(=O)c2ccc(C)cc2)c(OC)c1
6. COc1cc(N/C(CCNC2=CC(=O)c3ccccc3C2=O)=N\S(=O)(=O)c2ccc(C)cc2)cc(OC)c1OC
7. COc1ccc(N/C(CCNC2=CC(=O)c3ccccc3C2=O)=N\S(=O)(=O)c2ccc(C)cc2)cc1
8. COc1ccc(N/C(CCNC2=CC(=O)c3ccccc3C2=O)=N\S(=O)(=O)c2ccc(C(C)(C)C)cc2)cc1OC

4.11
5.04
5.03
5.48
4.17
5.47
5.12
4.94

Okay, here is my list. What is pIC50 for each of these?
1. Cc1ccc(S(=O)(=O)/N=C(/CCNC2=CC(=O)c3ccccc3C2=O)NC2CCCCC2)cc1
2. COc1ccc(N/C(CCNC2=C(Br)C(=O)c3ccccc3C2=O)=N\S(=O)(=O)c2ccc(C)cc2)cc1OC
3. C#CCNC1=CC(=O)c2ccccc2C1=O
4. Cc1ccc(S(=O)(=O)/N=C(/CCNC2=CC(=O)c3ccccc3C2=O)Nc2ccc(Cl)cc2Cl)cc1
5. Cc1ccc(S(=O)(=O)/N=C(/CCNC2=CC(=O)c3ccccc3C2=O)Nc2ccccc2I)cc1

5.01
5.27
4.51
4.69
4.72

// each listed compound needs a value for pIC50
1. COc1ccc(N/C(CCNC2=CC(=O)C(C)=C(C)C2=O)=N\S(=O)(=O)c2ccc(C)cc2)cc1OC
2. Cc1ccc(S(=O)(=O)/N=C(\N)CCNC2=CC(=O)c3ccccc3C2=O)cc1
3. Cc1ccc(S(=O)(=O)/N=C(/CCNC2=CC(=O)c3ccccc3C2=O)Nc2cc(F)c(F)c(F)c2)cc1
4. COc1cccc2c1C(=O)c1c(O)c3c(c(O)c1C2=O)C[C@@](O)(C(=O)CO)C[C@@H]3O[C@H]1C[C@H](N)[C@H](O)[C@H](C)O1
5. Cc1ccc(S(=O)(=O)/N=C(/CCNC2=CC(=O)c3ccccc3C2=O)Nc2ccc(Cl)cc2)cc1
6. Cc1ccc(S(=O)(=O)/N=C(/CCNC2=CC(=O)c3ccccc3C2=O)NCc2ccccc2)cc1

[4.98, 4.61, 5.07, 5.80, 4.87, 5.40]

State its pIC50: COc1ccc(N/C(CCNC2=CC(=O)c3ccccc3C2=O)=N\S(=O)(=O)c2ccc(C)cc2)cc1OC
4.84
